- ASSAY_INFO: protein stability index of a GFP-peptide fusion (yeast GPS) (PSI 1-4); higher = more stable; sorted into four equal gates, so the index is relative within each strain
- CONDITION_LABEL: san1∆
Listed below: protein stability index values for each entry.
Reply with just the number.

| INPUT_SEQUENCE | QUANTITY_NAME | TEST_RESULT |
| --- | --- | --- |
| SELQPQNRSLQEHNIQD [SNF2] | protein stability index | 3.08 |

May I ask what protein stability index has been recorded for SYHNGNLKGRPYTGWVD [FAS2] ?
3.08

May I ask what protein stability index has been recorded for VIIKGFKTYRNETIIDN [SMC3] ?
2.94

May I ask what protein stability index has been recorded for LQLNEAEEFVAGVSHGT [SMX3] ?
3.01

May I ask what protein stability index has been recorded for SRSSVCVKAIEALFQSR [YCG1] ?
3.04

May I ask what protein stability index has been recorded for FKYVSVRYEEKRELKQL [BRR2] ?
2.93

May I ask what protein stability index has been recorded for AKNIISNVLDGNKNQFE [LRP1] ?
2.92

May I ask what protein stability index has been recorded for LIYHLKDCAEVDSRTKI [IRR1] ?
3.02

May I ask what protein stability index has been recorded for LLVFRNADLDLDEMELH [YDL116W/NUP84] ?
3.01

Hey, just so you know, these numbers are from the supplement of paper PMC9732359.
